Where do the numbers come from? From paper PMC12371487.

system: Dictyostelium discoideum (Dd) in infection; assay: Dd-Mm infection assay: host amoeba growth (fluorescence); format: cell-based; settings: Dictyostelium discoideum; infected Dd, fluorescence AUC over 72 h at 25 °C; 6-concentration curve, top 100 μM, 1:3 steps; IC50 interpolated
pIC50: −log10 of the molar value.
Assign Yes to entries whose pIC50 meets or exceeds 5; assign No to the rest.

{"molecule": "CC(=O)c1cc(Br)c(O)cc1O [Compound 19, 5-Bromo-2,4-dihydroxyacetophenone]", "class_assignment": "No"}

Please check the record CCCCCCCCCc1cccc(O)c1C(=O)O and state if its pIC50 is at or above 5.
Yes

Please check the record O=C(O)c1c(O)cccc1CCCCCCCCc1ccc2c(c1)OCO2 and state if its pIC50 is at or above 5.
No

Please check the record CC(=O)c1cc(Br)c(O)c(Br)c1O [Compound 20, 3,5-Dibromo-2,4-dihydroxyacetophenone] and state if its pIC50 is at or above 5.
No

Please check the record CC(=O)c1ccc(O)c(Cl)c1O [Compound 15, 3-Chloro-2,4-dihydroxyacetophenone] and state if its pIC50 is at or above 5.
No

Please check the record CC(=O)c1ccc(O)c(Br)c1O [Compound 18, 3-Bromo-2,4-dihydroxyacetophenone] and state if its pIC50 is at or above 5.
No

Please check the record CCCCCCCCCc1cc(O)cc(O)c1C(C)=O and state if its pIC50 is at or above 5.
No

Please check the record O=C(/C=C/c1c2ccccc2cc2ccccc12)c1cc(Cl)c(O)cc1O and state if its pIC50 is at or above 5.
No

Please check the record CC(=O)c1c(O)cc(O)cc1CCCCc1ccccc1 and state if its pIC50 is at or above 5.
No

Please check the record CCCCCCCCCCCc1cccc(O)c1C(=O)O [Compound 11, Anagigantic acid] and state if its pIC50 is at or above 5.
Yes

Please check the record CC(=O)c1c(O)cc(O)c(Cl)c1CCCCCCc1ccccc1 and state if its pIC50 is at or above 5.
Yes

Please check the record CC(=O)c1cc(Cl)c(O)cc1O [Compound 16, 5-Chloro-2,4-dihydroxyacetophenone] and state if its pIC50 is at or above 5.
No

Please check the record O=C(/C=C/c1cccc2ccccc12)c1cc(Cl)c(O)cc1O and state if its pIC50 is at or above 5.
Yes

Please check the record CC(=O)c1cc(Cl)c(O)c(Cl)c1O [Compound 17, 3,5-Dichloro-2,4-dihydroxyacetophenone] and state if its pIC50 is at or above 5.
No

Please check the record CC(=O)c1c(O)cc(O)cc1CCCCCCc1ccccc1 and state if its pIC50 is at or above 5.
No
